From: paper PMC9978883

- targetUnderTest: ALDH1 (Homo sapiens, UniProt P00352)
- Sequence (P00352 whole entry): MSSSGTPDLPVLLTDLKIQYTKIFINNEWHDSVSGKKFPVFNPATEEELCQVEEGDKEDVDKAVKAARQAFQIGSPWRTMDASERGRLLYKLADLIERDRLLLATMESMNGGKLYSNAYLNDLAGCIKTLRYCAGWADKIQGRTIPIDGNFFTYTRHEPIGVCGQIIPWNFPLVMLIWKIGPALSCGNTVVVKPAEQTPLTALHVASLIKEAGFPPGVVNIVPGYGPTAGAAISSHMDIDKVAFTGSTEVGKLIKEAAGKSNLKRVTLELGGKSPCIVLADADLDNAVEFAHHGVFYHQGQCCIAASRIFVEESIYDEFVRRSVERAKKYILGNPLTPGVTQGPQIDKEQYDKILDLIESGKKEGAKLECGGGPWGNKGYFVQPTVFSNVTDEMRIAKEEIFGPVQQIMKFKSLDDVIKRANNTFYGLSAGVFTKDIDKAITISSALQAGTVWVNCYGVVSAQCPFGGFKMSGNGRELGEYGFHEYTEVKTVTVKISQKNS
endpoint: Kd (µM)
The reply should contain only the number, in µM.

In: What value of Kd has been reported for the following molecule? O=C(N/N=C/c1ccc([N+](=O)[O-])o1)c1ccc(O)cc1 [NFZ, Nifuroxazide]
Out: 22.2

====

- System: VCaP
- experimentSummary: Cell proliferation
- Assay type: cell-based, human
- conditions: Homo sapiens, VCaP, 72 h, read-out: Growth inhibitory IC50, VCaP
Attribute: IC50

Illustrative cases are given below, each with its answer.
{"compound": "CC1CS(=O)(=O)CCN1/N=C/c1ccc([N+](=O)[O-])o1 (stereo not drawn)", "valueReported": "> 30 µM"}
{"compound": "CCN(CC)C(=S)SSC(=S)N(CC)CC", "valueReported": "> 30 µM"}

In: Give the measured IC50 of O=C(N/N=C/c1ccc([N+](=O)[O-])o1)c1cc([N+](=O)[O-])cc([N+](=O)[O-])c1O .
Out: > 30 µM
